System: MALME-3M melanoma
Assay: NCI tumour cell line growth inhibition, 48 h
measurement.type: TGI (µM)
Kindly answer with a numeric value in µM, unit omitted.

[[record]]
compound = "Cc1nc(N)nc(N)c1CCCc1ccccc1"
measurement_type = "TGI"
experimental_value = 95.7


Exercise: So what's the measured TGI for this one? CC(C)=CC(=O)N[C@H]1CC[C@]2(C)C3CC[C@]4(C)C(C(C)N(C)C)=CCC4C3CCC2[C@H]1O (stereo not given in full)
Key: 4.23

Exercise: Would you mind doing `COc1ccc2c(c1)NC1(CCN(CCCC(=O)c3ccc(F)cc3)CC1)N=N2` as well?
Key: 30.6

---

Tested on: HCT-15 colon
Assay: NCI tumour cell line growth inhibition, 48 h; in the data active = GI50 below about 0.43 µM; inactive = the rest
Select the matching outcome among active, inactive

Observe how each entry below is paired with its result.
[[record]]
compound_string = "CC(C)c1cccc(O)c(=O)c1"
label_value = "inactive"

[[record]]
compound_string = "C=C1C(=O)O[C@H]2[C@H]1CC/C(Cn1cc(-c3ccc(F)cc3)nn1)=C\\CC[C@@]1(C)O[C@@H]21"
label_value = "active"

[[record]]
compound_string = "N#C/C(=N\\Nc1ccccc1)C(=O)Nc1cc(-c2ccccc2)nn1-c1ccccc1"
label_value = "inactive"


// switching to the query compound
Exercise: Please share the test call associated with `C[C@H]1CNC(=O)c2cnn3ccc(nc23)N[C@H](C)c2cc(F)ccc2O1` .
Key: inactive

---

Tested on: SF-295 CNS
Test: NCI tumour cell line growth inhibition, 48 h
Catalogue of TGI readings, one per entry.

Sample records with TGI:
[[record]]
compound = "COC(=O)C1=C(C(=O)OC)C(N(C)C)C(C(=O)OC)=C(C(=O)OC)S1"
experimental_value = "> 100 µM"

[[record]]
compound = "N/C(=N\\Nc1ccc(Cl)cc1)c1cnccn1"
experimental_value = "> 100 µM"

[[record]]
compound = "CC(=O)OC12c3ccccc3-c3ccccc3C1C(C(=O)O)C2C(=O)O (configuration not stated)"
experimental_value = "> 10 µM"


Exercise: So what's the measured TGI for this one? `Nn1c(=O)[nH]c2ncn(Cc3ccccc3)c2c1=O`
Key: > 100 µM

Exercise: Would you mind doing COC(=O)C(CC(=O)Nc1ccc(Cl)c(Cl)c1)C(=O)C(=O)Nc1ccc(Cl)c(Cl)c1 (configuration not stated) as well?
Key: > 100 µM

Exercise: Would you mind doing `Cc1cc(Nc2ccc(NS(C)(=O)=O)cc2)c2c(ccc3nccc32)[nH]1` as well?
Key: 60.5 µM

Exercise: Would you mind doing O=CN1N=C(c2cccc(Nc3ccnc4cc(Cl)ccc34)c2)CC1c1ccccc1 (configuration not stated) as well?
Key: 1.66 µM

---

Catalogue of TGI readings, one per entry.
System: HCC-2998 colon
Test: NCI tumour cell line growth inhibition, 48 h

[[record]]
compound = "Cn1nc(C(F)(F)F)c(-c2cc(C(F)(F)F)cc(C(F)(F)F)c2)c1-c1ccc(OCc2ccc(Cl)cc2)cc1O"
experimental_value = "12.4 µM"

[[record]]
compound = "Cc1cc(S(=O)(=O)Nc2nncn2-c2ccc(Cl)cc2)c(S)cc1Cl"
experimental_value = "> 10 µM"

[[record]]
compound = "CNC(=O)SCC(NC(=O)CCC(N)C(=O)O)C(=O)NCC(=O)O (stereo not given)"
experimental_value = "> 100 µM"

[[record]]
compound = "CCOC1NC(=O)Oc2cc3ccccc3cc21 (stereo not given)"
experimental_value = "> 100 µM"


The record that follows has no TGI shown yet.
Exercise: So what's the measured TGI for this one? `O=[N+]([O-])/C=C(\CS(=O)(=O)c1ccccc1)c1ccc2c(c1)OCO2`
Key: > 100 µM

---

Test system: MALME-3M melanoma
Assay: NCI tumour cell line growth inhibition, 48 h
measurement.type: TGI (µM)
Kindly answer with a numeric value in µM, unit omitted.

Sample records with TGI:
[[record]]
molecule = "COc1ccc(/C(C#N)=C/c2cc(OC)c(OC)c(OC)c2)cc1"
measurement_type = "TGI"
experimental_value = 56.7

[[record]]
molecule = "O=C(c1cccnc1)N1N=C(c2ccccc2)CC1(O)c1cc(F)c(Cl)cc1Cl (stereo unspecified)"
measurement_type = "TGI"
experimental_value = 83

[[record]]
molecule = "Cn1c(-c2ccccc2)c(/C=C/C2=[N+](C)c3ccccc3C2(C)C)c2ccccc21"
measurement_type = "TGI"
experimental_value = 3.1

[[record]]
molecule = "CCCCc1c2cnccc2c(CCCC)c2c1[nH]c1ccccc12"
measurement_type = "TGI"
experimental_value = 37.8


The record that follows has no TGI shown yet.
Exercise: So what's the measured TGI for this one? CC(=O)OC12c3ccccc3-c3ccccc3C1C(C(=O)O)C2C(=O)O (stereo unspecified)
Key: 3.09

---

System: RPMI-8226 leukemia
Experiment: NCI tumour cell line growth inhibition, 48 h
Catalogue of TGI readings, one per entry.

[[record]]
compound = "CCOC1NC(=O)Oc2cc3ccccc3cc21 (stereo not given)"
system_under_test = "RPMI-8226 leukemia"
experimental_value = "> 100 µM"

[[record]]
compound = "Cc1ccc(-c2cc[n+]3c(n2)oc2ccccc23)cc1"
system_under_test = "RPMI-8226 leukemia"
experimental_value = "54.4 µM"

[[record]]
compound = "Cc1ccc(S(=O)(=O)OC(COC(=O)c2ccccc2)C(OS(=O)(=O)c2ccc(C)cc2)C(OS(=O)(=O)c2ccc(C)cc2)C(COC(=O)c2ccccc2)OS(=O)(=O)c2ccc(C)cc2)cc1 (stereo not given)"
system_under_test = "RPMI-8226 leukemia"
experimental_value = "> 100 µM"

[[record]]
compound = "Cc1ccc(S(=O)(=O)C2=c3nc4ccccc4cc3=C3C(=O)c4ccccc4C(=O)C32)cc1 (stereo not given)"
system_under_test = "RPMI-8226 leukemia"
experimental_value = "> 100 µM"

[[record]]
compound = "CC1(C)C2CCC1C(=O)[C@@]1(C=CC(=O)CC1)C2 (stereo not given in full)"
system_under_test = "RPMI-8226 leukemia"
experimental_value = "> 100 µM"


Exercise: So what's the measured TGI for this one? `N#C/C(=N\Nc1ccccc1)C(=O)Nc1cc(-c2ccccc2)nn1-c1ccccc1`
Key: 39.2 µM

Exercise: Would you mind doing O=C(OC1CN2CCC1CC2)N(c1ccccc1)c1ccccc1 (stereo not given) as well?
Key: > 100 µM

Exercise: Would you mind doing `CCC(CC)(CO)CNc1cc(Cl)nc(N)n1` as well?
Key: > 100 µM

Exercise: Would you mind doing `C[n+]1c2ccccc2nc2ccccc21` as well?
Key: 16.3 µM

Exercise: Would you mind doing CC(C(=O)c1ccccc1)C1(O)C(=O)Nc2ccc(Cl)cc21 (stereo not given) as well?
Key: > 100 µM

---

Catalogue of log10 of TGI readings, one per entry.
Test system: SNB-75 CNS
Experiment: NCI tumour cell line growth inhibition, 48 h
// stored as log10 of TGI expressed in µM

Sample records with log10 of TGI:
[[record]]
compound = "C=CCOC(=O)N1c2ccc(O)cc2[C@@]23O[C@@]24[C@@H]1C#C/C=C\\C#C[C@]3(O)C(OC)(OC)C[C@@H]4C"
experimental_value = 1.66

[[record]]
compound = "Cc1c(C)c(C)c(-n2c(=O)n(C)c(=O)n2-c2cc(C(C)(C)C)cc(C(C)(C)C)c2O)c(C)c1C"
experimental_value = 1.23

[[record]]
compound = "C=CC(=O)N1C/C(=C\\c2ccc([N+](=O)[O-])cc2)C(=O)/C(=C/c2ccc([N+](=O)[O-])cc2)C1"
experimental_value = 0.06


Exercise: So what's the measured log10 of TGI for this one? CC(C)=CC(=O)N[C@H]1CC[C@]2(C)C3CC[C@]4(C)C(C(C)N(C)C)=CCC4C3CCC2[C@H]1O (some centres undefined)
Key: 1.34

Exercise: Would you mind doing `COc1ccc(-c2ncn(C[Si](C)(C)C)c2-c2ccc(OC)cc2)cc1` as well?
Key: 1.45

---

Test system: SK-MEL-5 melanoma
Assay: NCI tumour cell line growth inhibition, 48 h; in the data active = GI50 below about 0.43 µM; inactive = the rest
Select the matching outcome among active, inactive

Observe how each entry below is paired with its result.
[[record]]
molecule = "C=C1SC(=Nc2ccccc2Cl)N(C(=O)c2sc3ccccc3c2Cl)C12CCCCC2"
label_value = "inactive"

[[record]]
molecule = "Cc1ccc2c(c1)C(=O)c1c-2c(OCCCN(C)C)nc2ccccc12"
label_value = "inactive"

[[record]]
molecule = "CC([C@H]1CC=C2C3CCC4=C[C@@H](N(C)C)CC[C@]4(C)C3CC[C@@]21C)N(C)C (stereo partly specified)"
label_value = "inactive"


Exercise: Please share the test call associated with `CC(=O)/C=C/C1=C(c2csc3ccccc23)c2ccccc2CC1` .
Key: inactive

Exercise: Would you mind doing `ClCc1ccccc1Cn1cnc2c(Cl)ncnc21` as well?
Key: inactive

Exercise: Would you mind doing `COc1ccc(NC(=O)c2sc3nc(C)c(C(=O)/C=C/c4cccc(OC)c4)cc3c2N)cc1` as well?
Key: inactive
